# target_or_system: UniProt:Q99720
# experiment_description: Human σ1 receptor radioligand assay ([3H](+)-pentazocine, transfected HEK-293 membranes)
# Assay type: binding
# recorded_conditions: μ and σ1 dual binding, one class symbol for both Ki-σ1 (human σ1 receptor, A1) and Ki-μ (human μ-opioid receptor, A2)
Here, each record is paired with measured Ki data.

CC[C@]1(N2CCN(CCOC(C)C)CC2)CCO[C@@H](C)C1    < 100 nM
CC(C)(F)COCCN1CCN(C2(C(=O)c3ccccn3)CCOC(C)(C)C2)CC1 (stereo not drawn)    < 500 nM
CC1(C)CC(C(=O)c2cccc(C(F)(F)F)n2)(N2CCN(Cc3ccccc3)CC2)CCO1 (stereo not drawn)    < 100 nM
CCC1(N2CCN(CCc3cccc(F)c3F)CC2)CCOC(C)(C)C1 (stereo not drawn)    < 500 nM
CC1(C)CC(C(=O)c2ccccn2)(N2CCN(CCc3ccncc3F)CC2)CCO1 (stereo not drawn)    < 500 nM

Qu. Using the record for C[C@H]1C[C@@](C(=O)c2ccccn2)(N2CCN(CCc3ccccc3F)CC2)CCO1 , report its Ki.
Ans. < 500 nM

Qu. Name the reported Ki value associated with the compound CC(C)C1(N2CCN(CCc3cccc(F)c3)CC2)CCOC(C)(C)C1 (stereo not drawn)
Ans. < 500 nM

Qu. Please give the measured Ki for this compound: CC(C)CCN1CCCN(C2(C(=O)c3ccccn3)CCOC(C)(C)C2)CC1 (stereo not drawn)
Ans. < 100 nM

Qu. Sample CCC1(N2CCN(Cc3ccccc3)CC2)CCOC2(CCCC2)C1 (stereo not drawn) — what was its Ki?
Ans. < 500 nM

Qu. Can you share its Ki? I mean this compound: CCC1(N2CCN(CCc3cccc(F)c3)CC2)CCOC(C)(C)C1 (stereo not drawn)
Ans. < 500 nM

Qu. I would be grateful if you could share the reported Ki for CC1(C)CC(C(=O)c2ccccn2)(N2CCN(Cc3ccc(F)cc3)CC2)CCO1 (stereo not drawn) .
Ans. < 500 nM

Qu. May I ask what Ki has been recorded for C=C(C)CCN1CCN(C2(C(=O)c3ccccn3)CCOC(C)(C)C2)CC1 (stereo not drawn) ?
Ans. < 500 nM

Qu. Field request: Ki | item: CC(C)CCN1CCC(C2(C(=O)c3ccccn3)CCOC(C)(C)C2)CC1 (stereo not drawn)
Ans. < 100 nM

###

# Ki values compiled below
# target_or_system: human σ1 receptor (Homo sapiens, UniProt Q99720)
# Sequence (Q99720 whole entry): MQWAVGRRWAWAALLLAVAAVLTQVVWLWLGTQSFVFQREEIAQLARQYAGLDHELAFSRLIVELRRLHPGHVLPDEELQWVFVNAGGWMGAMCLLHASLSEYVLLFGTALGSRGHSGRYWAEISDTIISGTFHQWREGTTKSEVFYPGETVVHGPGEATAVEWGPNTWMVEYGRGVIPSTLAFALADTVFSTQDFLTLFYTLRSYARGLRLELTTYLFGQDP
# experiment_description: Human σ1 receptor radioligand assay ([3H](+)-pentazocine, transfected HEK-293 membranes)
# Type: binding
# recorded_conditions: μ and σ1 dual binding, one class symbol for both Ki-σ1 (human σ1 receptor, A1) and Ki-μ (human μ-opioid receptor, A2)

CC(C)CCN(C)[C@H]1CCN([C@@]2(C(=O)c3ccccn3)CCOC(C)(C)C2)C1    < 500 nM
CC1(C)CC(Cc2ccccc2)(N2CCN(Cc3ccccc3)CC2)CCO1 (stereo not drawn)    < 100 nM
CC(C)OCCN1CCC(C2(c3ccccn3)CCOC(C)(C)C2)CC1 (stereo not drawn)    > 500 nM
c1ccc(CN2CCN(C3(c4ccccc4)CCOC4(CCCC4)C3)CC2)cc1 (stereo not drawn)    < 100 nM

Qu. Look up Ki for this compound: CC(C)OCCN1CCC([C@@]2(C(=O)c3ccccn3)CCO[C@@H](C)C2)CC1
Ans. < 500 nM

Qu. Consider the compound shown here: CC(C)OCCCN1CCC(C2(C(=O)c3ccccn3)CCOC(C)(C)C2)CC1 (stereo not drawn) What is its recorded Ki?
Ans. > 500 nM

###

# target_or_system: human σ1 receptor (Homo sapiens, UniProt Q99720)
# experiment_description: Human σ1 receptor radioligand assay ([3H](+)-pentazocine, transfected HEK-293 membranes)
# Type: binding
# recorded_conditions: μ and σ1 dual binding, one class symbol for both Ki-σ1 (human σ1 receptor, A1) and Ki-μ (human μ-opioid receptor, A2)
pKi: −log10 of the molar value.
# maps each entry to its pKi

CC(C)CCN1CCN(C2(C(=O)c3ccccc3)CCOC(C)(C)C2)CC1 (stereo not drawn)    > 6.30

Qu. Query: pKi; subject: COCCC1(N2CCN(CCc3ccccc3)CC2)CCOC(C)(C)C1 (stereo not drawn)
Ans. > 6.30

Qu. Can you share its pKi? I mean this compound: CC1(C)CC(C(=O)c2ccccn2)(N2CCN(Cc3cccc(F)c3)CC2)CCO1 (stereo not drawn)
Ans. > 6.30

Qu. // lookup pKi for CN(Cc1ccccc1)[C@H]1CCN(C2(C(=O)c3ccccn3)CCOC(C)(C)C2)C1 (stereo partly drawn)
Ans. < 6.30

Qu. What pKi value was documented for this compound, C[C@H]1C[C@](C(=O)c2ccccn2)(C2CCN(Cc3ccccc3)CC2)CCO1 ?
Ans. > 6.30

Qu. Suppose we examine the compound CC(C)OCCN1CCCN(C2(C(=O)c3ccccn3)CCOC(C)(C)C2)CC1 (stereo not drawn) ; what pKi value has been reported?
Ans. > 6.30

###

# target_or_system: UniProt:Q99720
# experiment_description: Human σ1 receptor radioligand assay ([3H](+)-pentazocine, transfected HEK-293 membranes)
# Format: binding
# recorded_conditions: one class symbol for both Ki-σ1 (human σ1 receptor, A1) and Ki-μ (human μ-opioid receptor, A2); read-out: μ and σ1 dual binding
pKi: −log10 of the molar value.
readout: pKi

Study these solved cases before continuing.
COCCN1CCN(C2(C(=O)c3ccccn3)CCOC(C)(C)C2)CC1 (stereo not shown)    < 6.30
C[C@@H]1C[C@](C(=O)c2ccccn2)(N2CCN(Cc3ccccc3)CC2)CCO1    > 6.30
CC(C)OCCN1CCN([C@]2(C(=O)c3ccccn3)CCOC(C)(C)C2)CC1 [Example 139]    < 6.30
CC1(C)CC(C(=O)c2ccccn2)(N2CCN(CCc3cccnc3)CC2)CCO1 (stereo not shown)    < 6.30

Qu. For the compound shown here, CC[C@]1(N2CCN(Cc3ccc(C#N)cc3)CC2)CCO[C@H](C)C1 , give the reported pKi.
Ans. < 6.30

###

The reader will find reported pKi values listed item by item below.
# target_or_system: human σ1 receptor (Homo sapiens, UniProt Q99720)
# experiment_description: Human σ1 receptor radioligand assay ([3H](+)-pentazocine, transfected HEK-293 membranes)
# Type: binding
# recorded_conditions: one class symbol for both Ki-σ1 (human σ1 receptor, A1) and Ki-μ (human μ-opioid receptor, A2); read-out: μ and σ1 dual binding
pKi: −log10 of the molar value.

Record excerpt, results attached:
CCC1(C2CCN(Cc3ccccc3)CC2)CCOCC1    < 6.30
CC1(C)CC(C(=O)c2ccccn2)(N2CCN(Cc3cccnc3)CC2)CCO1 (centres unmarked)    < 6.30
CC(C)OCCN1CCN([C@]2(C(=O)c3ccccn3)CCO[C@@H](C)C2)CC1    < 6.30

Qu. Give its pKi value. Item: CC1(C)CC(C(=O)c2ccccn2)(N2CCN(CCc3ncccc3Cl)CC2)CCO1 (centres unmarked)
Ans. < 6.30

Qu. Any idea what its pKi is? The compound is CC(C)CCN1CCN([C@]2(C(=O)c3ccccn3)CCO[C@@H](C)C2)CC1 [Example 98]
Ans. > 6.30

###

# target_or_system: human σ1 receptor (Homo sapiens)
# experiment_description: Human σ1 receptor radioligand assay ([3H](+)-pentazocine, transfected HEK-293 membranes)
# Type: binding
# recorded_conditions: μ and σ1 dual binding, one class symbol for both Ki-σ1 (human σ1 receptor, A1) and Ki-μ (human μ-opioid receptor, A2)
In this section we review reported Ki values for a set of compounds.

Examples with their reported Ki follow.
CC(C)CN1CCN(C2(C(=O)c3ccccc3)CCOC3(CCCC3)C2)CC1 (stereo not drawn) [Example 7]    < 100 nM
CC(c1ccccc1)N1CCN(C2(C(=O)c3ccccn3)CCOC(C)(C)C2)CC1 (stereo not drawn) [Example 62]    < 500 nM
CC1(C)CC(C(=O)c2ccccn2)(N2CCN(CCc3ccccc3)CC2)CCO1 (stereo not drawn) [Example 54]    < 500 nM
CC(C)C1(N2CCN(Cc3ccccc3)CC2)CCOC(C)(C)C1 (stereo not drawn) [Example 43]    < 500 nM
CC1(C)CC(C(=O)c2ccccn2)(N2CCN(CCC3CC3)CC2)CCO1 (stereo not drawn) [Example 128]    < 500 nM

Qu. Report Ki for CC(C)CCN(C)[C@@H]1CCN([C@@]2(C(=O)c3ccccn3)CCOC(C)(C)C2)C1 [Example 148] tested on human σ1 receptor (Homo sapiens).
Ans. < 500 nM

Qu. Lab request: please report Ki under test system human σ1 receptor (Homo sapiens) for CC1(C)CC(c2ccccc2)(N2CCN(Cc3ccccc3)CC2)CCO1 (stereo not drawn) [Example 35]
Ans. < 500 nM

Qu. Lab note: need Ki for O=C(c1cccc(C(F)(F)F)n1)C1(N2CCN(Cc3ccccc3)CC2)CCOC2(CCCC2)C1 (stereo not drawn) [Example 6] on human σ1 receptor (Homo sapiens), anyone have it?
Ans. < 100 nM

Qu. Recall the recorded Ki for CC(C)CN1CCC(C2(c3ccccn3)CCOC(C)(C)C2)CC1 (stereo not drawn) [Example 126] with human σ1 receptor (Homo sapiens) and state it.
Ans. > 500 nM

Qu. So what Ki did CCCC1(N2CCN(CCc3ccccc3)CC2)CCOC(C)(C)C1 (stereo not drawn) [Example 41] get with human σ1 receptor (Homo sapiens)?
Ans. < 500 nM

Qu. What measured Ki is associated with CC1(C)CC(C(=O)c2ccccn2)(N2CCN(Cc3ccccc3)CC2)CCO1 (stereo not drawn) [Example 1] on human σ1 receptor (Homo sapiens)?
Ans. < 100 nM

Qu. Under human σ1 receptor (Homo sapiens): Ki value of CCC1(N2CCN(CCc3cc(F)ccc3F)CC2)CCOC(C)(C)C1 (stereo not drawn) [Example 99] ?
Ans. < 500 nM
